- assay method text: Counterscreen qHTS for Identification of Calcium Integrin Binding Protein 1 (CIB1) Competitor
- protocol conditions: series mostly up to 114 µM
Results filed as inconclusive are left out. Active and inactive are the calls of the source. Calls follow the shape of the dose curve; as a rule, active = well fitted inhibition curve with a large enough effect; inconclusive = small, poorly fitted or top-dose-only effect; inactive = no such curve, though single readings can be large or run the other way.
Outcomes: yes = active, no = inactive

[
  {
    "compound": "O=C1OC(c2ccc(O)c(S(=O)(=O)O)c2)(c2ccc(O)c(S(=O)(=O)O)c2)c2c(Br)c(Br)c(Br)c(Br)c21",
    "answer label": "no"
  },
  {
    "compound": "C[CH2][Hg][S]c1ccccc1C(=O)O",
    "answer label": "no"
  },
  {
    "compound": "CCCCCCCCCCCCCCCC[N+](C)(C)C",
    "answer label": "no"
  },
  {
    "compound": "S=C(SSC(=S)N1CCCCC1)N1CCCCC1",
    "answer label": "no"
  },
  {
    "compound": "O=c1oc2ccccc2c(O)c1C(CC(O)c1ccc(-c2ccc(Br)cc2)cc1)c1ccccc1 (stereo not given)",
    "answer label": "no"
  },
  {
    "compound": "N[C@@H](Cc1ccc(Oc2cc(I)c(O)c(I)c2)c(I)c1)C(=O)O",
    "answer label": "no"
  },
  {
    "compound": "CC1=C(O)C(=O)C=C2C1=CC=C1[C@@]2(C)CC[C@@]2(C)[C@@H]3C[C@](C)(C(=O)O)CC[C@]3(C)CC[C@]12C",
    "answer label": "yes"
  },
  {
    "compound": "O=C1C(I)=CC(=C(c2cc(I)c(O)c(I)c2)c2ccccc2C(=O)O)C=C1I",
    "answer label": "no"
  },
  {
    "compound": "CC(=O)[O][Hg][c]1ccccc1",
    "answer label": "no"
  },
  {
    "compound": "Cc1ccc([N+](=O)[O-])[c]2c1[O][Hg]2",
    "answer label": "no"
  }
]
